Below, each entry is listed with its recorded competition rate.
Target: T1, human MSLN-FL-his protein (human, UniProt Q13421 296-580)
T1 construct: made in HEK293E cells, purified on nickel column; also called hMSLN-FL-his; human MSLN full-length protein; not shown: His tag
T1 sequence (Q13421 other isoform, or with tags, fused parts or gaps): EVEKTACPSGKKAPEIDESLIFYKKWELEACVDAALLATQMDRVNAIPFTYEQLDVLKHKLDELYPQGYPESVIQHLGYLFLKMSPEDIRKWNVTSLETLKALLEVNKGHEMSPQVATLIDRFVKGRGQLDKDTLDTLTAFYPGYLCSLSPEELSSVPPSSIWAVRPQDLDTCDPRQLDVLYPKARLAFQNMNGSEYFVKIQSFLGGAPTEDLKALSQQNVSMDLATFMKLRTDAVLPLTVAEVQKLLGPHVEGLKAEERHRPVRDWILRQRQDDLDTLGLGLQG
Experiment: competitive ELISA; row F8-4.5; also: test concentration or dose not given here
Record the value in %, omitting the unit from your answer.

Fill in: competition rate of S009-F8-13.8 (antibody, human IgG1, kappa, V domains shown, human-murine chimeric antibody, human IgG1/kappa constant regions) VH: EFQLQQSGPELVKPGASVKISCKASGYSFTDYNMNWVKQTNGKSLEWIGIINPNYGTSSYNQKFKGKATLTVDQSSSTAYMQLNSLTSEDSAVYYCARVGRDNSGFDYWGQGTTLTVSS VL: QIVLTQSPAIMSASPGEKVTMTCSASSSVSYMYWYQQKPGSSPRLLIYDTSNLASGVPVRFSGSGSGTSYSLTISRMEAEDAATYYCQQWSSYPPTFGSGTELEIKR is ___
93

Fill in: competition rate of S009-F8-15.19 (antibody, human IgG1, kappa, V domains shown, human-murine chimeric antibody, human IgG1/kappa constant regions) VH: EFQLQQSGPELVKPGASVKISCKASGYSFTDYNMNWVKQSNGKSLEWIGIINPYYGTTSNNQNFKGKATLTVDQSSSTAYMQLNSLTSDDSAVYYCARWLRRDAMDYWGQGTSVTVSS VL: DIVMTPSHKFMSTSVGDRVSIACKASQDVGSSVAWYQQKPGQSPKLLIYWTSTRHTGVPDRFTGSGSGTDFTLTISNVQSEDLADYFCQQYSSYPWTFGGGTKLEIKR is ___
43.8

Fill in: competition rate of S009-F8-7.5 (antibody, human IgG1, kappa, V domains shown, human-murine chimeric antibody, human IgG1/kappa constant regions) VH: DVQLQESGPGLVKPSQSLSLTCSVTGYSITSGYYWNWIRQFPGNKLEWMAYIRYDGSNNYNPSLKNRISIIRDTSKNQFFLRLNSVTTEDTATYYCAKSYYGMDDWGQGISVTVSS VL: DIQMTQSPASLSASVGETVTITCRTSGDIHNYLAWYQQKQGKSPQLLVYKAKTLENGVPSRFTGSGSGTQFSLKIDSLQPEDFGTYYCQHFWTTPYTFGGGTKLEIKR is ___
3.24

Fill in: competition rate of S009-F8-4.5 (antibody, human IgG1, kappa, V domains shown, human-murine chimeric antibody, human IgG1/kappa constant regions) VH: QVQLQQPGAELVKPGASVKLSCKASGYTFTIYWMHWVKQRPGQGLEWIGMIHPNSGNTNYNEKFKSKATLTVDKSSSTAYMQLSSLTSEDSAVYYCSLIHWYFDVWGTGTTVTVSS VL: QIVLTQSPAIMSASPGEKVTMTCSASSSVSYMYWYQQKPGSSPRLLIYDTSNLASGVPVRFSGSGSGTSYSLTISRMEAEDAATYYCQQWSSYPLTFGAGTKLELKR is ___
97.5
